System: Candida albicans Gu4
Experiment: Antifungal activity towards resistant (MDR) strains
Format: cell-based
Settings: fluconazole sensitive, parent strain for Gu5
List of MIC Candida albicans Gu4 values.
Measured Quantity: MIC Candida albicans Gu4 (µg/mL)

Compound | Study Target | Experimental Result
CCN(CC)[C@@H](Cc1ccccc1)C(=O)NC1C(O)C(C)OC(O[C@H]2/C=C/C=C/C=C/C=C/CC/C=C/C=C/[C@H](C)[C@@H](O)[C@@H](C)[C@H](C)OC(=O)C[C@H](O)C[C@H](O)C[C@H](O)CC[C@@H](O)[C@H](O)CC3(O)C[C@H](O)[C@@H](C(=O)O)[C@H](C2)O3)C1O (stereo partly drawn) | Candida albicans Gu4 | 8
C[C@@H]1[C@H](O)[C@@H](C)/C=C/C=C/CC/C=C/C=C/C=C/C=C/C(O[C@H]2O[C@H](C)[C@@H](O)[C@H](N)[C@@H]2O)CC2O[C@](O)(CC(O)C(O)CCC(O)CC(O)CC(O)CC(=O)O[C@H]1C)CC(O)C2C(=O)O (stereo partly drawn) | Candida albicans Gu4 | 0.5
CC1OC(O[C@H]2/C=C/C=C/C=C/C=C/CC/C=C/C=C/[C@H](C)[C@@H](O)[C@@H](C)[C@H](C)OC(=O)C[C@H](O)C[C@H](O)C[C@H](O)CC[C@@H](O)[C@H](O)CC3(O)C[C@H](O)[C@@H](C(=O)O)[C@H](C2)O3)C(O)C(NC(=O)[C@H](N)CC(=O)OC(C)(C)C)C1O (stereo partly drawn) | Candida albicans Gu4 | 8

====

Tested on: Candida albicans Gu4
Experiment: Antifungal activity towards resistant (MDR) strains
Assay type: cell-based
Conditions: fluconazole sensitive, parent strain for Gu5
Description: The determination of antifungal activity was performed by the serial dilutions method in buffered RPMI 1640 medium, in a 96-wells microplates, according to the standard procedure (National Committee for Clinical Laboratory Standards. Reference method for broth dilution antifungal susceptibility testing of yeast, approved standard, 2nd ed. M27-A2 vol. 22 Wayne, Pa., 2002). […]
List of MIC Candida albicans Gu4 values.

Compound | Study Target | Unit Of Measure | MIC Candida albicans Gu4
C[C@@H]1[C@H](O)[C@@H](C)/C=C/C=C/CC/C=C/C=C/C=C/C=C/[C@H](O[C@@H]2O[C@H](C)[C@@H](O)[C@H](NC(=O)[C@H](N)c3ccccc3)[C@@H]2O)C[C@@H]2O[C@](O)(C[C@@H](O)C[C@@H](O)[C@H](O)CC[C@@H](O)C[C@@H](O)CC(=O)O[C@H]1C)C[C@H](O)[C@H]2C(=O)O | Candida albicans Gu4 | µg/mL | 8
CC1OC(O[C@H]2/C=C/C=C/C=C/C=C/CC/C=C/C=C/[C@H](C)[C@@H](O)[C@@H](C)[C@H](C)OC(=O)C[C@H](O)C[C@H](O)C[C@H](O)CC[C@@H](O)[C@H](O)CC3(O)C[C@H](O)[C@@H](C(=O)O)[C@H](C2)O3)C(O)C(NC(=O)[C@H](N)CCC(=O)OC(C)(C)C)C1O (stereo partly shown) | Candida albicans Gu4 | µg/mL | 8
CCCN(CCC)[C@@H]1[C@H](O)[C@H](O[C@H]2/C=C/C=C/C=C/C=C/CC/C=C/C=C/[C@H](C)[C@@H](O)[C@@H](C)[C@H](C)OC(=O)C[C@H](O)C[C@H](O)C[C@H](O)CC[C@@H](O)[C@H](O)C[C@]3(O)C[C@H](O)[C@@H](C(=O)O)[C@H](C2)O3)O[C@H](C)[C@H]1O | Candida albicans Gu4 | µg/mL | 8
CC1OC(O[C@H]2/C=C/C=C/C=C/C=C/CC/C=C/C=C/[C@H](C)[C@@H](O)[C@@H](C)[C@H](C)OC(=O)C[C@H](O)C[C@H](O)C[C@H](O)CC[C@@H](O)[C@H](O)CC3(O)C[C@H](O)[C@@H](C(=O)O)[C@H](C2)O3)C(O)C(NC(=S)NCC(C)(C)CN(C)C)C1O (stereo partly shown) | Candida albicans Gu4 | µg/mL | 4
